Molecular target: T1, peanut allergen Ara h 6 (peanut (Arachis hypogaea), UniProt Q647G9 22-145)
T1 construct: also called recombinant Ara h 6
T1 sequence (looked up): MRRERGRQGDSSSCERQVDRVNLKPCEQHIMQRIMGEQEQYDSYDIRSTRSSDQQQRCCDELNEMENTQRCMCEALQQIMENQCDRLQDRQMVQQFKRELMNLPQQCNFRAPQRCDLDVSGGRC
Assay: Phadia ImmunoCAP and/or ELISA and Western blot
VALUE_KIND: binding result

BINDER | VALUE_KIND | MEASUREMENT
human IgE mAb 9A11 (antibody, V domains shown, human IgE from hybridoma) VH: EVQLVESGGGLVRPGGSLRLSCVASGFTFNTYWMHWVRQAPGKGLLWVSSLNKDGSSPTYADSVKGRFTISRDNTNNTLFLQLDSLRAEDTAVYYCVRDRRAVTTARYFDLWGRGTLVTVSS VL: DIVMTQSPESLAVSLGERATINCKSSSNIDNYLGWYQQRPGQPPKLLIYWASKRESGVPDRFSGSGSGTDFTLTIGRLQAEDVAVYYCQQYYTSPPVTFGGGTKVEIK | binding result | binds
